Compiled record: log10 IC50 values for human HIF-PHD2 (Homo sapiens) across several sources.
Short version: log10 scale, IC50, nM.

Example cases with answers are listed next.
O=C(O)CNC(=O)c1c(O)c2ccc(-c3cccc(Cl)c3)cc2oc1=O	2.18
O=C(O)CNC(=O)c1c(O)c2c(n(Cc3cncs3)c1=O)CCOC2	1.52
O=C(O)c1cnn(-c2nc(O)c3c(cnn3Cc3ccc(-c4ccccc4C4CC4)cc3)n2)c1	1.45
Cc1ccc(-c2ncc3c(O)c(C(=O)NCC(=O)O)c(=O)n(C)c3n2)cc1	0.83
O=C(O)CNC(=O)c1c(O)c2c(n(Cc3ccccn3)c1=O)COC2	0.68

The record that follows has no log10 IC50 shown yet.
Prompt line: Enter reported log10 IC50 observed with human HIF-PHD2 (Homo sapiens) for CCC(c1cc(C(F)(F)F)cc(C(F)(F)F)c1)n1ncc2nc(-n3cc(C(=O)O)cn3)nc(O)c21 (centres unmarked)
Response line: 2.41
